Hey, just so you know, these numbers are from PubChem BioAssay AID1963836.

- Test system: 857933-349-R-J2-PDC complex spheroid viability;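 note: spheroids exposed to compounds for seven days before readout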
- runDescription: Anticancer human tumor 857933-349-R-J2-PDC patient-derived colon adenocarcinoma cell line growth inhibition [POLQ]
- condition: curve of first compound; second compound 0.0316 µM

>  <compound>
Nc1ccn(C2OC(CO)C(O)C2(F)F)c(=O)n1 (stereo not given) + Nc1ccc(C#CCN(C(=O)Cc2ncc(C(F)(F)F)cc2C(F)(F)F)c2ccc(F)cc2)nn1

>  <uom>
nM

>  <qual>
=

>  <IC50>
87

$$$$
>  <compound>
COc1ccc([C@@H](O)c2cc(-c3ncnc4cc(N5CCOCC5)ccc34)c(F)cc2Cl)nn1 + Cc1cccc(N(C)C(=O)C2C(O)CCN2c2nc(C)cc(C(F)(F)F)c2C#N)c1

>  <uom>
nM

>  <qual>
>

>  <IC50>
10000

$$$$
>  <compound>
C#Cc1c(F)ccc2cc(O)cc(-c3ncc4c(N5CC6CCC(C5)N6)nc(OCC56CCCN5CC(F)C6)nc4c3F)c12 (stereo not given) + Nc1ccc(C#CCN(C(=O)Cc2ncc(C(F)(F)F)cc2C(F)(F)F)c2ccc(F)cc2)nn1

>  <uom>
nM

>  <qual>
>

>  <IC50>
10000

$$$$
>  <compound>
COc1cccc(OCCCN)c1-c1cc(Nc2cnc(C#N)cn2)n[nH]1 + Nc1ccc(C#CCN(C(=O)Cc2ncc(C(F)(F)F)cc2C(F)(F)F)c2ccc(F)cc2)nn1

>  <uom>
nM

>  <qual>
>

>  <IC50>
1000

$$$$
>  <compound>
CC[C@@]1(O)C(=O)OCc2c1cc1n(c2=O)Cc2cc3c(CN(C)C)c(O)ccc3nc2-1 + Nc1ccc(C#CCN(C(=O)Cc2ncc(C(F)(F)F)cc2C(F)(F)F)c2ccc(F)cc2)nn1

>  <uom>
nM

>  <qual>
=

>  <IC50>
71.7

$$$$
>  <compound>
CCc1c2c(nc3ccc(O)cc13)-c1cc3c(c(=O)n1C2)COC(=O)[C@]3(O)CC + Nc1ccc(C#CCN(C(=O)Cc2ncc(C(F)(F)F)cc2C(F)(F)F)c2ccc(F)cc2)nn1

>  <uom>
nM

>  <qual>
=

>  <IC50>
14.9

$$$$
>  <compound>
C#Cc1c(F)ccc2cc(O)cc(-c3ncc4c(N5CC6CCC(C5)N6)nc(OCC56CCCN5CC(F)C6)nc4c3F)c12 (stereo not given) + Cc1cccc(N(C)C(=O)C2C(O)CCN2c2nc(C)cc(C(F)(F)F)c2C#N)c1

>  <uom>
nM

>  <qual>
>

>  <IC50>
10000

$$$$
>  <compound>
O=c1[nH]cc(F)c(=O)[nH]1 + Cc1cccc(N(C)C(=O)C2C(O)CCN2c2nc(C)cc(C(F)(F)F)c2C#N)c1

>  <uom>
nM

>  <qual>
=

>  <IC50>
2470

$$$$
>  <compound>
CC(=O)O[C@H]1C(=O)[C@@]2(C)[C@H]([C@H](OC(=O)c3ccccc3)[C@]3(O)C[C@H](OC(=O)[C@H](O)[C@@H](NC(=O)c4ccccc4)c4ccccc4)C(C)=C1C3(C)C)[C@]1(OC(C)=O)CO[C@@H]1C[C@@H]2O + Cc1cccc(N(C)C(=O)C2C(O)CCN2c2nc(C)cc(C(F)(F)F)c2C#N)c1

>  <uom>
nM

>  <qual>
<

>  <IC50>
9.49

$$$$
>  <compound>
COc1cccc(OCCCN)c1-c1cc(Nc2cnc(C#N)cn2)n[nH]1 + COC1C(OC(N)=O)C(O)C(Oc2ccc3c(O)c(NC(=O)c4ccc(O)c(CC=C(C)C)c4)c(=O)oc3c2C)OC1(C)C

>  <uom>
nM

>  <qual>
=

>  <IC50>
89.5

$$$$
